# Lookup of reported TGI keyed by entry
Tested on: DMS 273 small cell lung
EXPERIMENT: NCI tumour cell line growth inhibition, 48 h
Please reply with the bare figure in µM and do not write the unit itself.

Some compounds with known TGI results, for comparison:
[
  {
    "COMPOUND": "CC1CCP(=O)(c2ccccc2)c2ccccc21 (configuration not stated)",
    "RECORDED_ENDPOINT": "TGI",
    "UNIT_TEXT": "µM",
    "TEST_RESULT": 90.2
  },
  {
    "COMPOUND": "COc1ccccc1/C=C1\\CCC(CCN(C)C)(C2=CCCC2)C1=O (configuration not stated)",
    "RECORDED_ENDPOINT": "TGI",
    "UNIT_TEXT": "µM",
    "TEST_RESULT": 32.1
  }
]

Query: Fill in the blank: the reported TGI of `CC(C)C1(O)C(c2ccccc2)=C(c2ccccc2)C(c2ccccc2)=C1c1ccccc1` is ____.
Result: 37.1
